Data origin, for the record: patent US6423689B1

# Target: N-type Ca2+ channels in IMR-32 cells (Homo sapiens, UniProt Q00975)
# Construct: host or cells: IMR-32 cells, differentiated with dibutyryl cAMP and bromodeoxyuridine
# Sequence (Q00975 whole entry): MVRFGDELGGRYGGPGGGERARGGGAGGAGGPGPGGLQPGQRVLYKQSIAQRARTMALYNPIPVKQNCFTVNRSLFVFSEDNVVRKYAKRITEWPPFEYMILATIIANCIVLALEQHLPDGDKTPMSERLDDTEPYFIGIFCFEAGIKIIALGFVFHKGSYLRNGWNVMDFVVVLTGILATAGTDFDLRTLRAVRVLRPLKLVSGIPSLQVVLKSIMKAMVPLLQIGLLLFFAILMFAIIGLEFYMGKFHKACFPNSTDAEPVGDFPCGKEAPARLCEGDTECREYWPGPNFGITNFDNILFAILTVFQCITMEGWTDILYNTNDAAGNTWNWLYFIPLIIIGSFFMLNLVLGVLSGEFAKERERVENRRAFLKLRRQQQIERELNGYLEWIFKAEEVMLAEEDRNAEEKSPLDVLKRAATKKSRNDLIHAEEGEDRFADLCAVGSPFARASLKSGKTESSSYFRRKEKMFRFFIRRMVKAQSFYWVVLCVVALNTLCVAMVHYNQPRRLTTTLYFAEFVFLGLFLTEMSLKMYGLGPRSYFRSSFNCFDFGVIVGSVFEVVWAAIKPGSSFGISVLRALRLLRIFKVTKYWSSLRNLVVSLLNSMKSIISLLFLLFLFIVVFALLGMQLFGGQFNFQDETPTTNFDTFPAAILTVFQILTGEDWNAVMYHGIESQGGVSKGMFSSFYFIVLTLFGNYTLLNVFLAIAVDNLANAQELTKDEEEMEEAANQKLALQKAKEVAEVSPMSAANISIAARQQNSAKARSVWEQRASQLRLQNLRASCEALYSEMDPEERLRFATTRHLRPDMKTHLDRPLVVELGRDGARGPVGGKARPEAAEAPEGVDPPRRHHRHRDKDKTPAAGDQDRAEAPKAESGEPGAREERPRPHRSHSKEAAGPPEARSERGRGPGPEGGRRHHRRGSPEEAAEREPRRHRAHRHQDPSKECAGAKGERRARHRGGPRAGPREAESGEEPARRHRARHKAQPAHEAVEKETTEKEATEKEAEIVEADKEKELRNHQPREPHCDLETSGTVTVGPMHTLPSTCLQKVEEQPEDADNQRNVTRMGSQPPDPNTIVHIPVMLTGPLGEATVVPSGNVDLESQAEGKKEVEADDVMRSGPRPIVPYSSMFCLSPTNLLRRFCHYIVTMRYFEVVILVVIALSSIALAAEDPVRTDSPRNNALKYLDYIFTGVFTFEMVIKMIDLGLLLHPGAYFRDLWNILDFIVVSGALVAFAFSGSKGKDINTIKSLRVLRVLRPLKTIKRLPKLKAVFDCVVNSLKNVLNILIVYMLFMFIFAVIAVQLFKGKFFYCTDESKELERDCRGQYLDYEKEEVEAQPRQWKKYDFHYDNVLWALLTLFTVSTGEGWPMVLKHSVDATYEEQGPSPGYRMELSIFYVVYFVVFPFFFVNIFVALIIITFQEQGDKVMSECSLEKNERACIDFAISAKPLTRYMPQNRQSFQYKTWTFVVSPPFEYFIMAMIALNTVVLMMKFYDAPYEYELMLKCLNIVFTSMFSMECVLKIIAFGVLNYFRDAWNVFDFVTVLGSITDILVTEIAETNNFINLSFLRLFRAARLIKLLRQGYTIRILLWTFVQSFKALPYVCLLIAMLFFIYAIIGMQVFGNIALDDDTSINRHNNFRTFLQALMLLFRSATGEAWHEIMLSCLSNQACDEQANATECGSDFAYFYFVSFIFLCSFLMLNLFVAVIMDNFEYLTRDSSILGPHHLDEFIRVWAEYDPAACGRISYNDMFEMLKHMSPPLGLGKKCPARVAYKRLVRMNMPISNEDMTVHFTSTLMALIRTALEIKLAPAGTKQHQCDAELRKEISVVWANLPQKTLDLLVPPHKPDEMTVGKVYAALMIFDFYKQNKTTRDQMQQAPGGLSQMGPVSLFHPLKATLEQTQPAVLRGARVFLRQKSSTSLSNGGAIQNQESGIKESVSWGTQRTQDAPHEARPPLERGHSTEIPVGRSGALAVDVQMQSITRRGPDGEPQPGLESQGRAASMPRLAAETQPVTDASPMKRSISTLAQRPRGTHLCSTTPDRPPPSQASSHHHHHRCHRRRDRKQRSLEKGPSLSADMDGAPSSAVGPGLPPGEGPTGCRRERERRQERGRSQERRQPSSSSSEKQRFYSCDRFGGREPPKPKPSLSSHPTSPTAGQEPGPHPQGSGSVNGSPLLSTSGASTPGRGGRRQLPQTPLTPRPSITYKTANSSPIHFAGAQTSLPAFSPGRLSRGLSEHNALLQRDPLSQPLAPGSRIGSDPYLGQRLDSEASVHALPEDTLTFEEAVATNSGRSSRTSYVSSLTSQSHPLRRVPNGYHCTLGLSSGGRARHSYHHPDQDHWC
# Sequence (P54289 25-956 partner limits assumed): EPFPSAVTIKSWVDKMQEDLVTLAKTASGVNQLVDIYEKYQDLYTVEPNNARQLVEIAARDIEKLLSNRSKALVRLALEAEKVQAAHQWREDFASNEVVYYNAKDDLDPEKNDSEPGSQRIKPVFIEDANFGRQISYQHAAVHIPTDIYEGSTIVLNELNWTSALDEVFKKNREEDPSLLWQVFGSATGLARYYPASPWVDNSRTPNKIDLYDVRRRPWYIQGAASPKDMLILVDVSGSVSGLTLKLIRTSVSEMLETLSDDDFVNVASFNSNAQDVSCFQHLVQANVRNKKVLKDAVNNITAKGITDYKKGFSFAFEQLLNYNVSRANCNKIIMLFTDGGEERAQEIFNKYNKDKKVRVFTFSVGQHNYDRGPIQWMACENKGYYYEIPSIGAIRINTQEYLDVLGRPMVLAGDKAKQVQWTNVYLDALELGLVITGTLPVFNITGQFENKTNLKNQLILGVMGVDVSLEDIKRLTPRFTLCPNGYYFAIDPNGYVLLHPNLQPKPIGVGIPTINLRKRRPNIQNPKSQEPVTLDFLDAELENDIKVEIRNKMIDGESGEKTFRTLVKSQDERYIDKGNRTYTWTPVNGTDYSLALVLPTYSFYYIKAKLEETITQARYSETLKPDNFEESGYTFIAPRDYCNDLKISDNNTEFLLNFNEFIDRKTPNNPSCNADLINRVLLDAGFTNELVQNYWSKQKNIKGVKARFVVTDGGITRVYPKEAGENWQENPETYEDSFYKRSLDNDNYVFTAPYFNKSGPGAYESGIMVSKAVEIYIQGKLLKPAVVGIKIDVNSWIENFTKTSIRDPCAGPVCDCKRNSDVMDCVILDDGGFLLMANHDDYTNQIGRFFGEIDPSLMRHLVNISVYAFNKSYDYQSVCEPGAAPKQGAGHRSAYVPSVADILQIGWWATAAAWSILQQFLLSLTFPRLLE
# Sequence (P54289 957-1103 partner limits assumed): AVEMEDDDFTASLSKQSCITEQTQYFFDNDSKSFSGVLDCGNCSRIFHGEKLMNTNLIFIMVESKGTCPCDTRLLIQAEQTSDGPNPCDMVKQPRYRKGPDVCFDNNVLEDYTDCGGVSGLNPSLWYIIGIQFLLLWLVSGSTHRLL
# Sequence (P54284 whole entry partner): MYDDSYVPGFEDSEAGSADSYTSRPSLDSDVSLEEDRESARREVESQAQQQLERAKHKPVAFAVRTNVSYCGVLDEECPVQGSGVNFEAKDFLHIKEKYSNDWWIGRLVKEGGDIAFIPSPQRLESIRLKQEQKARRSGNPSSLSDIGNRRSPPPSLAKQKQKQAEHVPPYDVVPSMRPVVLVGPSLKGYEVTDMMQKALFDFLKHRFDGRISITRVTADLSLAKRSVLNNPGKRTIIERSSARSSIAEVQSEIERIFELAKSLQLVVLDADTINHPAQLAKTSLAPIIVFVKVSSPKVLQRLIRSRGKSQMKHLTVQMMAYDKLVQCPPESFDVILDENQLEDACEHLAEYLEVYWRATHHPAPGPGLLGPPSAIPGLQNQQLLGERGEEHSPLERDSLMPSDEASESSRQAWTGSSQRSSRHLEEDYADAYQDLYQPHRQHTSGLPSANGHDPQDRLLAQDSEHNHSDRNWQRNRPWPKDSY
# Assay Name: Inhibition of N-type calcium flux in IMR-32 cells (Indo-1 fluorescence, nitrendipine present)
# Assay type: cell-based
# Condition: 10 μM
# Method: Measurement of N-type Ca^2+ Channel Blocking Potencies of Compounds in IMR-32 Cells Using the Fluorescent Ca^2+ Indicator Indo-1 IMR-32 cells are a human tumoral cell line of neural origin. […] Calcium flux into these cells may be induced by stimulation with elevated potassium concentrations. The L-channel component of calcium flux may be blocked by adding 5 μM nitrendipine. […] Intracellular calcium concentrations are measured using the fluorescent calcium indicator Indo 1. […]
Measure Name: Inhibition of Calcium Flux in IMR-32 Cells % Inhibition at 10 μM
Remember to put the unit after the number in your answer.

# example entries with known answers
- CC(C)C[C@H](NC(=O)N1CCCCCC1)C(=O)N[C@@H](Cc1ccc(C#Cc2ccccc2)cc1)C(=O)NC(C)(C)C (relative stereo) [Example 134]: 56%
- Cc1ccc(NC(=S)N[C@@H](CC(C)C)C(=O)N[C@@H](Cc2ccc(OCc3ccccc3)cc2)C(=O)OC(C)(C)C)cc1 (relative stereo) [Example 50]: 85%
- CC(C)C[C@H](NC(=O)Nc1ccccc1)C(=O)N[C@@H](Cc1ccc(OCc2ccccc2)cc1)C(=O)OC(C)(C)C (relative stereo) [Example 54]: 63%
- CNC(=S)N[C@@H](CC(C)C)C(=O)N[C@@H](Cc1ccc(OCc2ccccc2)cc1)C(=O)OC(C)(C)C (relative stereo) [Example 51]: 85%
- CC(=O)N[C@H]1CCN(C(=O)[C@H](Cc2ccc(OCc3ccccc3)cc2)NC(=O)[C@H](CC(C)C)NC(=O)N2CCCCCC2)C1 [Example 244]: 73%

Exam item: Can you share its Inhibition of Calcium Flux in IMR-32 Cells % Inhibition at 10 μM? I mean this molecule: CC(=O)N[C@@H](CC(C)C)C(=O)N[C@@H](Cc1ccc(OCc2ccccc2)cc1)C(=O)OC(C)(C)C (relative stereo) [Example 116]
Marked response: 53%

* * *

# Target: N-type Ca2+ channels in IMR-32 cells (Homo sapiens, UniProt Q00975)
# Construct: host or cells: IMR-32 cells, differentiated with dibutyryl cAMP and bromodeoxyuridine
# Assay Name: Inhibition of N-type calcium flux in IMR-32 cells (Indo-1 fluorescence, nitrendipine present)
# Format: cell-based
# Condition: 1 μM
Measure Name: Inhibition of Calcium Flux in IMR-32 Cells % Inhibition at 1 μM
Give your result as the value with the unit written after it.

Exam item: What does the data say about its Inhibition of Calcium Flux in IMR-32 Cells % Inhibition at 1 μM? Entry: CC(C)C[C@H](NC(=O)Nc1ccc(Cl)cc1Cl)C(=O)N[C@@H](Cc1ccc(OCc2ccccc2)cc1)C(=O)OC(C)(C)C (relative stereo)
Marked response: 55%

Exam item: # iterate: CC(C)C[C@H](NC(=O)Nc1cccc(Cl)c1)C(=O)N[C@@H](Cc1ccc(OCc2ccccc2)cc1)C(=O)OC(C)(C)C (relative stereo)
Marked response: 45%

Exam item: Can you handle COc1cccc(NC(=O)N[C@@H](CC(C)C)C(=O)N[C@@H](Cc2ccc(OCc3ccccc3)cc2)C(=O)OC(C)(C)C)c1 (relative stereo) next?
Marked response: 34%

Exam item: Same for CC(C)C[C@H](NC(=O)N1CCOCC1)C(=O)N[C@@H](Cc1ccc(OCc2ccccc2)cc1)C(=O)OC(C)(C)C (relative stereo)
Marked response: 29%

Exam item: Please do the same for CCCCNC(=O)N[C@@H](CC(C)C)C(=O)N[C@@H](Cc1ccc(OCc2ccccc2)cc1)C(=O)OC(C)(C)C (relative stereo) as well.
Marked response: 41%

Exam item: What about this compound? CC(C)C[C@H](NC(=O)Nc1ccc(Cl)c(Cl)c1)C(=O)N[C@@H](Cc1ccc(OCc2ccccc2)cc1)C(=O)OC(C)(C)C (relative stereo)
Marked response: 30%
